# Tested on: SU-DHL-8
# Assay: Antiproliferative activity against human SU-DHL-8 cells measured after 4 days by Cell Titer Glo Luminescent Cell Viability Assay
# Assay type: functional, cell-based
# Experimental Parameters: SU-DHL-8, 96 h
Measured Parameter: pIC50
// pIC50 is dimensionless: -log10 of concentration (M)

Task: Fill in reported pIC50 for this entry: COc1ccc(-c2cc(OCCN(C)c3ncc(C(=O)NO)cn3)c3ncnc(C)c3c2)cn1
Output: 8.19

---

# Tested on: KARPAS-422
# Assay: Antiproliferative activity against human KARPAS-422 cells measured after 4 days by Cell Titer Glo Luminescent Cell Viability Assay
# Assay type: functional, cell-based
# Experimental Parameters: KARPAS-422, 96 h
Measured Parameter: IC50
Quick note: unit goes after the number.

Task: Fill in reported IC50 for this entry: COc1ccc(-c2cc(OCCN(C)c3ncc(C(=O)NO)cn3)c3ncnc(C)c3c2)cn1
Output: 21 nM
